# system-tested: T1, Granzyme A (GzmA) (human, UniProt P12544 29-262)
# T1 sequence: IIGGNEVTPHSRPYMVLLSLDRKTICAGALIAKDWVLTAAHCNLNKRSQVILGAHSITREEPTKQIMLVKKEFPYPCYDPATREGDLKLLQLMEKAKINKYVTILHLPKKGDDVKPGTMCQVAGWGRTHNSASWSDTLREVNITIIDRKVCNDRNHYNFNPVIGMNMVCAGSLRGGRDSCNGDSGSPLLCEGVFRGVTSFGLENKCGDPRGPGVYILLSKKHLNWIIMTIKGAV
# experiment: fluorescence polarization
value-type: Kd (nM)
The figure you give is taken to be in nM; do not add the unit.

Exam item: What does the data say about its Kd? Entry: BB94 dsDNA (dsDNA) DNA 1: TCTGTGAGTTGAACGCACACATCACAAAGGAG DNA 2: CTCCTTTGTGATGTGTGCGTTCAACTCACAGA
Marked response: 120

Exam item: Would you kindly repeat that for TCTGTGAGTTGAACGCACACATCACAAAGGAG (ssDNA) [BB94 ssDNA] ?
Marked response: 122

Exam item: Would you kindly repeat that for UCUGUGAGUUGAACGCACACAUCACAAAGGA (ssRNA) [BB94 RNA] ?
Marked response: 1600

Exam item: Would you kindly repeat that for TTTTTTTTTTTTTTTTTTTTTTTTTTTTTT (ssDNA) [dT(30)] ?
Marked response: 48

Exam item: Would you kindly repeat that for UUUUUUUUUUUUUUUUUUUUUUUUUUUUUU (ssRNA) [rU(30)] ?
Marked response: 232

Exam item: Would you kindly repeat that for CCCAAGCUUAUUUAUUUAUUUAUUGCAGGUC (ssRNA) [AU RNA] ?
Marked response: 401

Origin of measurements: paper PMC4041364
